Give measured log10 OH rate constant (cm³/molecule/s) for each item. Keep answers brief.
Settings: 25.0 °C
Numbers only.

For orientation, consider the following solved cases.
C=C(C)C(=C)C
-9.91
CC(C)CC(C)C(C)C (stereo not given)
-11.1
CN(C)N=O
-11.6
CC(=O)CC(C)C
-10.9
CC1=CC[C@@H](C(C)C)CC1
-9.9
Cc1cccc2ccccc12
-10.3

Hi, could you look up log10 OH rate constant (cm³/molecule/s) for each item in my list?
1. CCCOC(C)=O
2. CBr
3. COCCO
4. CC(C)c1ccccc1

Result ::
-11.5
-13.4
-10.9
-11.2

All values here come from the OPERA property sets (Mansouri et al. 2018).
